# Test system: Pichia kudriavzevii
# experiment: Antifungal activity against Candida krusei after 24 hrs by serial dilution method
# Format: functional
Bridge positions count the residues as written; N and C are the ends. Square brackets hold non-standard residues; d marks the D form. Peptide text beside a SMILES is read from it. * marks the point of attachment. pTerphenylCO(4''-OnC5H11) = CCCCCOc1ccc(-c2ccc(-c3ccc(C(=O)*)cc3)cc2)cc1; 2Naphthoyl(6-heptyloxy) = CCCCCCCOc1ccc2cc(C(=O)*)ccc2c1; 2Naphthoyl(6-octyloxy) = CCCCCCCCOc1ccc2cc(C(=O)*)ccc2c1; X1 = CCCOc1ccc(-c2ccc(-c3ccc(C(=O)*)cc3)cc2)cc1; Pro(4S-NH2) = N[C@@H]1CN[C@H](C(=O)O)C1; hTyr = N[C@@H](CCc1ccc(O)cc1)C(=O)O; Orn = NCCC[C@H](N)C(=O)O
readout.name: MIC80 (µg/mL)
Your answer should be a plain number; it is taken to be in µg/mL.

Recorded results for 5 compounds are shown here.
compound	measured.on	MIC80 / µg/mL
CCCOc1ccc(-c2ccc(-c3ccc(C(=O)N[C@H]4CCCNC(=O)[C@@H]5C[C@H](N)CN5C(=O)[C@H](CCCN)NC(=O)[C@H](CCc5ccc(O)cc5)NC(=O)[C@@H]5CCCN5C(=O)[C@H](C(C)C)NC4=O)cc3)cc2)cc1.Cc1ccc(S(=O)(=O)O)cc1 (X1-[Orn]VP[hTyr][Orn][Pro(4S-NH2)]; lactam 1-C)	Pichia kudriavzevii	2
CCCCCOc1ccc(-c2ccc(-c3ccc(C(=O)N[C@H]4CCCNC(=O)[C@@H]5C[C@H](N)CN5C(=O)[C@H](CCCN)NC(=O)[C@H](CCc5ccc(O)cc5)NC(=O)[C@@H]5CCCN5C(=O)[C@H](C(C)C)NC4=O)cc3)cc2)cc1.Cc1ccc(S(=O)(=O)O)cc1 ({pTerphenylCO(4''-OnC5H11)}-[Orn]VP[hTyr][Orn][Pro(4S-NH2)]; lactam 1-C)	Pichia kudriavzevii	2
CCCCCCCOc1ccc2cc(C(=O)N[C@H]3CCCNC(=O)[C@@H]4C[C@H](N)CN4C(=O)[C@H](CCCN)NC(=O)[C@H](CCc4ccc(O)cc4)NC(=O)[C@@H]4CCCN4C(=O)[C@H](C(C)C)NC3=O)ccc2c1.Cc1ccc(S(=O)(=O)O)cc1 ({2Naphthoyl(6-heptyloxy)}-[Orn]VP[hTyr][Orn][Pro(4S-NH2)]; lactam 1-C)	Pichia kudriavzevii	2
CCCCCCOc1ccc2cc(C(=O)N[C@H]3CCCNC(=O)[C@@H]4C[C@H](N)CN4C(=O)[C@H]([C@H](C)O)NC(=O)[C@H](CCc4ccc(O)cc4)NC(=O)[C@@H]4C[C@H](N)CN4C(=O)[C@H]([C@@H](C)O)NC3=O)ccc2c1.Cc1ccc(S(=O)(=O)O)cc1	Pichia kudriavzevii	2
CCCCCCCCOc1ccc2cc(C(=O)N[C@H]3CCCNC(=O)[C@@H]4C[C@H](N)CN4C(=O)[C@H](CCCN)NC(=O)[C@H](CCc4ccc(O)cc4)NC(=O)[C@@H]4CCCN4C(=O)[C@H]([C@@H](C)O)NC3=O)ccc2c1.Cc1ccc(S(=O)(=O)O)cc1 ({2Naphthoyl(6-octyloxy)}-[Orn]TP[hTyr][Orn][Pro(4S-NH2)]; lactam 1-C)	Pichia kudriavzevii	1

Could you now look at the following compound, please?
Form field, MIC80 with Pichia kudriavzevii, item "CCCCCCCOc1ccc2cc(C(=O)N[C@H]3CCCNC(=O)[C@@H]4C[C@H](N)CN4C(=O)[C@H]([C@H](C)O)NC(=O)[C@H](CCc4ccc(O)cc4)NC(=O)[C@@H]4C[C@H](N)CN4C(=O)[C@H]([C@@H](C)O)NC3=O)ccc2c1.Cc1ccc(S(=O)(=O)O)cc1" : 8

====

# Tested on: Candida tropicalis
# experiment: Antifungal activity against Candida tropicalis after 24 hrs by serial dilution method
# Format: functional
Bridge positions count the residues as written; N and C are the ends. Square brackets hold non-standard residues; d marks the D form. Peptide text beside a SMILES is read from it. * marks the point of attachment. X2 = CCCCCCCOc1ccc(-c2ccc(-c3ccc(C(=O)*)cc3)cc2)cc1; Pro(4S-NH2) = N[C@@H]1CN[C@H](C(=O)O)C1; hTyr = N[C@@H](CCc1ccc(O)cc1)C(=O)O; Orn = NCCC[C@H](N)C(=O)O
readout.name: MIC80 (µg/mL)
Your answer should be a plain number; it is taken to be in µg/mL.

For record CCCCCCCOc1ccc(-c2ccc(-c3ccc(C(=O)N[C@H]4CCCNC(=O)[C@@H]5C[C@H](N)CN5C(=O)[C@H](CCCCN)NC(=O)[C@H](CCc5ccc(O)cc5)NC(=O)[C@@H]5CCCN5C(=O)[C@H](C(C)C)NC4=O)cc3)cc2)cc1.Cc1ccc(S(=O)(=O)O)cc1 (X2-[Orn]VP[hTyr]K[Pro(4S-NH2)]; lactam 1-C) the listed MIC80 is 16

For record "CCCCCCOc1ccc2cc(C(=O)N[C@H]3CCCNC(=O)[C@@H]4C[C@H](N)CN4C(=O)[C@H]([C@H](C)O)NC(=O)[C@H](CCc4ccc(O)cc4)NC(=O)[C@@H]4C[C@H](N)CN4C(=O)[C@H]([C@@H](C)O)NC3=O)ccc2c1.Cc1ccc(S(=O)(=O)O)cc1" the listed MIC80 is 64

====

The entries below come with measured MIC80 values attached.
# System: Pichia kudriavzevii
# experiment: Antifungal activity against Candida krusei after 24 hrs by serial dilution method
# Format: functional
Bridge positions count the residues as written; N and C are the ends. Square brackets hold non-standard residues; d marks the D form. Peptide text beside a SMILES is read from it. * marks the point of attachment. pTerphenylCO(4''-OnC5H11) = CCCCCOc1ccc(-c2ccc(-c3ccc(C(=O)*)cc3)cc2)cc1; X2 = CCCCCCCOc1ccc(-c2ccc(-c3ccc(C(=O)*)cc3)cc2)cc1; Pro(4S-NH2) = N[C@@H]1CN[C@H](C(=O)O)C1; hTyr = N[C@@H](CCc1ccc(O)cc1)C(=O)O; Orn = NCCC[C@H](N)C(=O)O
Your answer should be a plain number; it is taken to be in µg/mL.

compound	readout.name	readout.number
CCCCCCCOc1ccc(-c2ccc(-c3ccc(C(=O)N[C@H]4CCCNC(=O)[C@@H]5C[C@H](N)CN5C(=O)[C@H](CCCCN)NC(=O)[C@H](CCc5ccc(O)cc5)NC(=O)[C@@H]5CCCN5C(=O)[C@H]([C@@H](C)O)NC4=O)cc3)cc2)cc1.Cc1ccc(S(=O)(=O)O)cc1 (X2-[Orn]TP[hTyr]K[Pro(4S-NH2)]; lactam 1-C)	MIC80	1

Could you now look at the following compound, please?
For record CCCCCOc1ccc(-c2ccc(-c3ccc(C(=O)N[C@H]4CCCNC(=O)[C@@H]5C[C@H](N)CN5C(=O)[C@H](CCCN)NC(=O)[C@H](CCc5ccc(O)cc5)NC(=O)[C@@H]5CCCN5C(=O)[C@H]([C@@H](C)O)NC4=O)cc3)cc2)cc1.Cc1ccc(S(=O)(=O)O)cc1 ({pTerphenylCO(4''-OnC5H11)}-[Orn]TP[hTyr][Orn][Pro(4S-NH2)]; lactam 1-C) the listed MIC80 is 0.5

====

# Tested on: Pichia kudriavzevii
# experiment: Antifungal activity against Candida krusei after 24 hrs by serial dilution method
# Type: functional
Bridge positions count the residues as written; N and C are the ends. Square brackets hold non-standard residues; d marks the D form. Peptide text beside a SMILES is read from it. * marks the point of attachment. 2Naphthoyl(6-heptyloxy) = CCCCCCCOc1ccc2cc(C(=O)*)ccc2c1; Pro(4S-NH2) = N[C@@H]1CN[C@H](C(=O)O)C1; hTyr = N[C@@H](CCc1ccc(O)cc1)C(=O)O; Orn = NCCC[C@H](N)C(=O)O
The entries below come with measured MIC80 values attached.
Your answer should be a plain number; it is taken to be in µg/mL.

molecule	readout.number
CCCCCCCOc1ccc2cc(C(=O)N[C@H]3CCCNC(=O)[C@@H]4C[C@H](N)CN4C(=O)[C@H](CCCN)NC(=O)[C@H](CCc4ccc(O)cc4)NC(=O)[C@@H]4CCCN4C(=O)[C@H]([C@@H](C)O)NC3=O)ccc2c1.Cc1ccc(S(=O)(=O)O)cc1 ({2Naphthoyl(6-heptyloxy)}-[Orn]TP[hTyr][Orn][Pro(4S-NH2)]; lactam 1-C)	1

Form field, MIC80 with Pichia kudriavzevii, item "CCCCCOc1ccc2cc(C(=O)N[C@H]3CCCNC(=O)[C@@H]4C[C@H](N)CN4C(=O)[C@H]([C@H](C)O)NC(=O)[C@H](CCc4ccc(O)cc4)NC(=O)[C@@H]4C[C@H](N)CN4C(=O)[C@H]([C@@H](C)O)NC3=O)ccc2c1.Cc1ccc(S(=O)(=O)O)cc1" : 8

Form field, MIC80 with Pichia kudriavzevii, item "CC[C@H](C)C[C@H](C)CCCCCCCCC(=O)N[C@H]1C[C@@H](O)[C@@H](NCCN)NC(=O)[C@@H]2[C@@H](O)CCN2C(=O)[C@H]([C@H](O)CCN)NC(=O)[C@H]([C@H](O)[C@@H](O)c2ccc(O)cc2)NC(=O)[C@@H]2C[C@@H](O)CN2C(=O)[C@H]([C@@H](C)O)NC1=O" : 0.25

Where do the numbers come from? From ChEMBL document CHEMBL1949505.
